# Test system: SARS-CoV-2
# assay.summary: cell-based anti-viral assay using Vero E6 cell line, viral RNA by qRT-PCR
# study.conditions: Severe acute respiratory syndrome coronavirus 2, Vero C1008; 5 μM compound, Vero E6 cells, 48 h, calculated from ΔCt; read-out: % SARS-CoV-2 Inactivation (5 μM)
# key: entry, value: inhibition at 5 µM
assay.metric: inhibition at 5 µM

1. Cn1c(Nc2cc(C(F)(F)F)cc(C(F)(F)F)c2)nc2cc(F)c(F)cc21 [Example 39]
< 3%
2. FC(F)(F)c1cc(Nc2nc3c(C(F)(F)F)cc(C(F)(F)F)cc3[nH]2)cc(C(F)(F)F)c1 [Example 1]
> 99.9%
3. Fc1cc2nc(Nc3cc(C(F)(F)F)cc(C(F)(F)F)c3)[nH]c2cc1F [Example 11]
99.9%
4. CN(c1ccc(C(F)(F)F)cc1)c1nc2cccc(C(F)(F)F)c2[nH]1 [Example 43]
> 90%
5. FC(F)(F)c1ccc(Nc2nc3c(C(F)(F)F)cc(C(F)(F)F)cc3[nH]2)cc1 [Example 27]
> 99%
6. FC(F)(F)c1cc(C(F)(F)F)c2nc(Nc3ccccc3)[nH]c2c1 [Example 3]
90%
7. FC(F)(F)c1cc(Nc2nc3ccc(C(F)(F)F)cc3[nH]2)cc(C(F)(F)F)c1 [Example 31]
> 99%
8. Fc1ccc(Nc2nc3c(C(F)(F)F)cc(C(F)(F)F)cc3[nH]2)cc1 [Example 25]
90%

---

Each entry below carries its reported inhibition at 1 µM.
# Test system: SARS-CoV-2
# assay.summary: cell-based anti-viral assay using Vero E6 cell line, viral RNA by qRT-PCR
# study.conditions: Severe acute respiratory syndrome coronavirus 2, Vero C1008; 1 μM compound, Vero E6 cells, 48 h, calculated from ΔCt; read-out: % SARS-CoV-2 Inactivation (1 μM)
assay.metric: inhibition at 1 µM

1) FC(F)(F)c1cc(C(F)(F)F)c2nc(Nc3ccc(Cl)cc3)[nH]c2c1
> 90%
2) FC(F)(F)c1cccc(Nc2nc3ccc(C(F)(F)F)cc3[nH]2)c1
< 3%
3) FC(F)(F)Oc1ccc2nc(Nc3cc(C(F)(F)F)cc(C(F)(F)F)c3)[nH]c2c1
> 95%
4) FC(F)(F)c1cc(Nc2nc3c(C(F)(F)F)cc(C(F)(F)F)cc3[nH]2)cc(C(F)(F)F)c1
> 95%
5) FC(F)(F)Oc1ccc2nc(Nc3cccc(C(F)(F)F)c3)[nH]c2c1
< 3%
6) FC(F)(F)c1cc(C(F)(F)F)c2nc(Nc3ccc4ccccc4c3)[nH]c2c1
90%
7) Fc1cc2nc(Nc3cc(C(F)(F)F)cc(C(F)(F)F)c3)[nH]c2cc1F
> 95%
8) FC(F)(F)c1cc(C(F)(F)F)c2nc(Nc3ccccc3C(F)(F)F)[nH]c2c1
< 3%
9) FC(F)(F)c1cccc(Nc2nc3c(C(F)(F)F)cccc3[nH]2)c1
< 3%
10) FC(F)(F)c1cc(C(F)(F)F)c2nc(NCc3ccccc3)[nH]c2c1
< 3%
11) CN(c1cccc(C(F)(F)F)c1)c1nc2c(C(F)(F)F)cc(C(F)(F)F)cc2[nH]1
> 95%
12) COc1ccc(Nc2nc3cc(F)c(F)cc3[nH]2)cc1Br
< 3%
13) FC(F)(F)c1ccc(Nc2nc3c(C(F)(F)F)cc(C(F)(F)F)cc3[nH]2)cc1
< 3%
14) FC(F)(F)c1cc(Nc2nc3ccc(C(F)(F)F)cc3[nH]2)cc(C(F)(F)F)c1
> 95%
15) FC(F)(F)c1cc(Nc2nc3c(C(F)(F)F)cccc3[nH]2)cc(C(F)(F)F)c1
> 99.9%
16) Fc1cc2nc(Nc3ccccc3)[nH]c2cc1F
90%
17) Fc1cc2nc(Nc3ccc(C(F)(F)F)cc3)[nH]c2cc1F
< 3%
18) O=S1(=O)CCC(Nc2nc3c(C(F)(F)F)cc(C(F)(F)F)cc3[nH]2)C1 (stereo not drawn)
< 3%

---

# Test system: SARS-CoV-2
# assay.summary: cell-based anti-viral assay using Vero E6 cell line, viral RNA by qRT-PCR
# study.conditions: 5 μM compound, Vero E6 cells, 48 h, increase in Ct vs no-drug control
assay.metric: ΔCt (5 μM)

1) Fc1cc2nc(Nc3cc(C(F)(F)F)cc(C(F)(F)F)c3)[nH]c2cc1F
10.3
2) CC(C)Nc1nc2c(C(F)(F)F)cc(C(F)(F)F)cc2[nH]1
4.2
3) FC(F)(F)c1ccc(Nc2nc3c(C(F)(F)F)cc(C(F)(F)F)cc3[nH]2)cc1
8
4) FC(F)(F)c1cc(Nc2nc3ccc(C(F)(F)F)cc3[nH]2)cc(C(F)(F)F)c1
9
5) COc1ccc(Nc2nc3cc(F)c(F)cc3[nH]2)cc1Br
1
6) CN(c1cccc(C(F)(F)F)c1)c1nc2cccc(C(F)(F)F)c2[nH]1
2.1
7) FC(F)(F)c1cc(C(F)(F)F)c2nc(NCc3ccccc3)[nH]c2c1
1.6
8) CC1(Nc2nc3c(C(F)(F)F)cc(C(F)(F)F)cc3[nH]2)CCC1
9.3
9) FC(F)(F)c1cc(Nc2nc3c(C(F)(F)F)cccc3[nH]2)cc(C(F)(F)F)c1
15.1
10) FC(F)(F)c1cc(C(F)(F)F)c2nc(Nc3ccc(Cl)cc3)[nH]c2c1
6
11) CN(c1cccc(C(F)(F)F)c1)c1nc2c(C(F)(F)F)cc(C(F)(F)F)cc2[nH]1
12.2
12) FC(F)(F)c1cc(C(F)(F)F)c2nc(Nc3ccc4ccccc4c3)[nH]c2c1
1.5
13) FC(F)(F)c1cc(C(F)(F)F)c2nc(N3CCCCC3)[nH]c2c1
1
14) Fc1cccc(Nc2nc3c(C(F)(F)F)cc(C(F)(F)F)cc3[nH]2)c1
4.3
15) Fc1cc2nc(Nc3ccccc3)[nH]c2cc1F
4.2
16) FC(F)(F)Oc1ccc2nc(Nc3cccc(C(F)(F)F)c3)[nH]c2c1
11.1
17) Cn1c(Nc2ccccc2)nc2cc(F)c(F)cc21
−0.1
18) FC(F)(F)c1cc(C(F)(F)F)c2nc(Nc3cccnc3)[nH]c2c1
1.2
19) FC(F)(F)c1cccc(Nc2nc3c(C(F)(F)F)cccc3[nH]2)c1
7.5
20) Fc1cc2nc(Nc3ccc(C(F)(F)F)cc3)[nH]c2cc1F
3.5
21) COc1ccc(Nc2nc3c(C(F)(F)F)cc(C(F)(F)F)cc3[nH]2)cc1Br
6
22) CN(c1cc(C(F)(F)F)cc(C(F)(F)F)c1)c1nc2c(C(F)(F)F)cc(C(F)(F)F)cc2[nH]1
13.4
23) C[C@@H](Nc1nc2c(C(F)(F)F)cc(C(F)(F)F)cc2[nH]1)c1cccc2ccccc12
1.9
24) Fc1cc2nc(NCc3ccccc3)[nH]c2cc1F
1
25) Cn1c(Nc2cc(C(F)(F)F)cc(C(F)(F)F)c2)nc2cc(F)c(F)cc21
1
26) CN(c1cc(C(F)(F)F)cc(C(F)(F)F)c1)c1nc2cccc(C(F)(F)F)c2[nH]1
5
27) FC(F)(F)c1cc(C(F)(F)F)c2nc(Nc3ccccc3C(F)(F)F)[nH]c2c1
2
28) COc1ccc2nc(Nc3cc(C(F)(F)F)cc(C(F)(F)F)c3)[nH]c2c1
4.3
29) FC(F)(F)c1cc(Nc2nc3c(C(F)(F)F)cc(C(F)(F)F)cc3[nH]2)cc(C(F)(F)F)c1
12

---

# Test system: SARS-CoV-2
# assay.summary: cell-based anti-viral assay using Vero E6 cell line, viral RNA by qRT-PCR
# study.conditions: Severe acute respiratory syndrome coronavirus 2, Vero C1008; 1 μM compound, Vero E6 cells, 48 h, calculated from ΔCt; read-out: % SARS-CoV-2 Inactivation (1 μM)
assay.metric: inhibition at 1 µM

1) FC(F)(F)c1ccc(Nc2nc3c(C(F)(F)F)cccc3[nH]2)cc1
> 99.9%
2) Fc1cccc(Nc2nc3c(C(F)(F)F)cc(C(F)(F)F)cc3[nH]2)c1
< 3%
3) CN(c1cccc(C(F)(F)F)c1)c1nc2cccc(C(F)(F)F)c2[nH]1
< 3%
4) Fc1cc2nc(NCc3ccccc3)[nH]c2cc1F
< 3%
5) CC1(Nc2nc3c(C(F)(F)F)cc(C(F)(F)F)cc3[nH]2)CCC1
> 90%
6) FC(F)(F)c1cc(C(F)(F)F)c2nc(Nc3ccccc3)[nH]c2c1
< 3%
7) Fc1ccccc1Nc1nc2c(C(F)(F)F)cc(C(F)(F)F)cc2[nH]1
< 3%

---

# Test system: SARS-CoV-2
# assay.summary: cell-based anti-viral assay using Vero E6 cell line, viral RNA by qRT-PCR
# study.conditions: 5 μM compound, Vero E6 cells, 48 h, increase in Ct vs no-drug control
assay.metric: ΔCt (5 μM)

1) FC(F)(F)c1ccc(Nc2nc3ccc(C(F)(F)F)cc3[nH]2)cc1 [Example 33]
14.3
2) CN(c1ccc(C(F)(F)F)cc1)c1nc2cccc(C(F)(F)F)c2[nH]1 [Example 43]
3.6
3) FC(F)(F)c1cccc(Nc2nc3ccc(C(F)(F)F)cc3[nH]2)c1 [Example 32]
9.3
